Would you kindly list glycan array binding signal (z-score) for each of these binders?
# testSystem: Gal3S(b1-4)[Fuc(a1-3)]GlcNAc6S
# protocol: glycan array binding signal (z-score within array); higher = stronger binding
# conditionSet: glycan notation: IUPAC condensed, linker removed
The entries come from a sample that favours the strongest signals as a whole.
Numbers only.

{"columns": ["binder", "glycan array binding signal (z-score)"],
 "data": [
  ["Epa19 (Candida glabrata) (protein) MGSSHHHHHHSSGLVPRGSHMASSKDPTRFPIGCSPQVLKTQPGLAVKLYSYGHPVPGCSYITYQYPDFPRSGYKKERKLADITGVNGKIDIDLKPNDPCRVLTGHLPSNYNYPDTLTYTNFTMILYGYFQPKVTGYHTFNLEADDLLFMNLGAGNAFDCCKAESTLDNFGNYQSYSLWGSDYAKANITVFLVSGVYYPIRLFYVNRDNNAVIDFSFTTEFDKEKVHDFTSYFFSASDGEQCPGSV", 0.49]
]}

Switching to the query record.
# glycan array binding signal (z-score) (binder: Clone646PsrP (Streptococcus pneumoniae) (protein) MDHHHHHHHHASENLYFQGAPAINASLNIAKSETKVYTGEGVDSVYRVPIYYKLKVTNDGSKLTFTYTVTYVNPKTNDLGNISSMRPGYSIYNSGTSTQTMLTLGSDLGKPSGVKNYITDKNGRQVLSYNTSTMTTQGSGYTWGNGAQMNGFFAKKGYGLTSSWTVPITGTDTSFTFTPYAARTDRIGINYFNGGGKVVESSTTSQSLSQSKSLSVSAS ) is 3.08
